FYI, the data here is from patent US10752612B2.

This section presents compounds with their documented pIC50 values.
# tgt: human Plk4 kinase domain (aa 2-275) (Homo sapiens)
# Construct: purified 6×His-tagged human Plk4 kinase domain (aa 2-275); 6xHis; made in house; host or cells: E. coli
# test_description: Plk4 kinase assay (ADP-Glo)
# Type: biochemical
# experimental_setup: Table 1
pIC50: −log10 of the molar value.

>>> observed_value("COc1c(Nc2cc(C)[nH]n2)nc(Sc2ccc(NC(=O)C3CC3)cc2)nc1N1CCN(C(C)C)CC1")
"> 6.00"
>>> observed_value("COC(=O)Nc1ccc(Sc2nc(Nc3cc(C)[nH]n3)c(C)c(N3CCCCC3)n2)cc1")
"> 6.00"
>>> observed_value("CCOc1c(Nc2cc(C)[nH]n2)nc(Sc2ccc(NC(=O)C3CC3)cc2)nc1N1CCNCC1 [drawing 122]")
"> 6.00"

query: # pIC50 lookup, item "COc1c(Nc2cc(C)[nH]n2)nc(Sc2ccc(S(C)(=O)=O)cc2Cl)nc1N1CCN(CCN(C)C)CC1"
result: > 6.00

query: # pIC50 lookup, item "CCOc1c(Nc2cc(C)[nH]n2)nc(Sc2ccc(NC(=O)C3CC3)cc2)nc1N1CCN(C(C)=O)CC1"
result: 6.00 to 7.00

query: # pIC50 lookup, item "COc1c(Nc2cc(C)[nH]n2)nc(Sc2ccc(S(=O)(=O)C(C)(C)c3cccc(Cl)c3F)cc2F)nc1N1CCOCC1"
result: > 6.00

query: # pIC50 lookup, item "CC(=O)Nc1ccc(Sc2nc(Nc3cc(C)[nH]n3)c(C)c(N3CCN(C(=O)CN(C)C)CC3)n2)cc1"
result: > 6.00

query: # pIC50 lookup, item "Cc1cc(Nc2nc(Sc3ccc(NC(=O)C4CC4)cc3)nc(N(C)C)c2C)n[nH]1"
result: > 6.00

query: # pIC50 lookup, item "CCN1CCN(c2nc(Sc3ccc(NC(C)=O)cc3)nc(Nc3cc(C)[nH]n3)c2OC)CC1"
result: > 6.00

----------
# tgt: human Plk4 kinase domain (aa 2-275) (Homo sapiens, UniProt O00444)
# Sequence (O00444 2-275): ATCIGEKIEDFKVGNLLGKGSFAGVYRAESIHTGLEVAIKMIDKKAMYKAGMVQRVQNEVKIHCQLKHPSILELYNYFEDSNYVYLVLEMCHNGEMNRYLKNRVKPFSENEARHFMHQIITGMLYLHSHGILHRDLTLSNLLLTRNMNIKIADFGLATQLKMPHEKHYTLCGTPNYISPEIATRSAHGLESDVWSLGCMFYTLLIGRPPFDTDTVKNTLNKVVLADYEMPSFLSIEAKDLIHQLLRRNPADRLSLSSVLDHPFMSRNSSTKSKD
property: IC50

Worked cases, IC50 given:
>>> observed_value("CCOc1c(Nc2cc(C)[nH]n2)nc(Sc2ccc(NC(C)=O)cc2)nc1N(C)CC")
"0.1 to 1 µM"
>>> observed_value("COc1c(Nc2cc(C)[nH]n2)nc(Sc2ccc(NC(C)=O)cc2)nc1N1CCN(CCNC(=N)N)CC1")
"< 1 µM"
>>> observed_value("Cc1cc(Nc2nc(Sc3ccc(NC(=O)C4CC4)cc3)nc3c2CCC3)n[nH]1")
"> 1 µM"
>>> observed_value("COc1c(Nc2cc(C)[nH]n2)nc(Sc2ccc(S(C)(=O)=O)cc2Cl)nc1N1CCC(CCN(C)C)CC1")
"< 1 µM"
>>> observed_value("CCOc1c(Nc2cc(C)[nH]n2)nc(Sc2ccc(NC(=O)C3CC3)cc2)nc1N(C)C [drawing 129]")
"0.1 to 1 µM"

query: # IC50 lookup, item "COc1c(Nc2cc(C)[nH]n2)nc(Sc2ccc(S(=O)(=O)Cc3cccc(-c4ccccc4)c3)cc2)nc1N1CCN(CCN(C)C)CC1"
result: < 1 µM

query: # IC50 lookup, item "COc1c(Nc2cc(C)[nH]n2)nc(Sc2ccc(C(=O)N(C)C)cc2)nc1N1CCN(CCN(C)C)CC1"
result: < 1 µM

query: # IC50 lookup, item "COc1c(Nc2cc(C)[nH]n2)nc(Sc2ccc(NS(C)(=O)=O)cc2)nc1N1CCN(CCN(C)C)CC1"
result: < 1 µM

query: # IC50 lookup, item "COc1c(Nc2cc(C)[nH]n2)nc(Sc2ccc(NC(C)=O)cc2)nc1N1CCN(CCCN(C)C)CC1"
result: < 1 µM

----------
This section presents molecules with their documented IC50 values.
# tgt: human Plk4 kinase domain (aa 2-275) (Homo sapiens)
# Sequence (O00444 2-275): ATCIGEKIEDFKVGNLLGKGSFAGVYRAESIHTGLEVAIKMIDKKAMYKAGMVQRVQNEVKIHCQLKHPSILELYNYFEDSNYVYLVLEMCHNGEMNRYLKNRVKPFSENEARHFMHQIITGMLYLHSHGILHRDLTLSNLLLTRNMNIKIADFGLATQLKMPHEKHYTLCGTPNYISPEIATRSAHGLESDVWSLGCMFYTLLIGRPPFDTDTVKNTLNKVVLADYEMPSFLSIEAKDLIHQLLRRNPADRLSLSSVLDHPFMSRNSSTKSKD

>>> observed_value("COc1c(Nc2cc(C)[nH]n2)nc(Sc2ccc(S(=O)(=O)Cc3ccccc3)cc2)nc1N1CCC(CCN(C)C)CC1")
"< 1000 nM"

query: Any idea what IC50 came out for "COc1c(Nc2cc(C)[nH]n2)nc(Sc2ccc(S(=O)(=O)Cc3nccs3)cc2)nc1N1CCN(CCN(C)C)CC1" on human Plk4 kinase domain (aa 2-275) (Homo sapiens)?
result: < 1000 nM

query: Any idea what IC50 came out for "COc1c(Nc2cc(C)[nH]n2)nc(Sc2ccc(S(=O)(=O)Cc3cccc(I)c3F)cc2F)nc1N1CCOCC1" on human Plk4 kinase domain (aa 2-275) (Homo sapiens)?
result: < 1000 nM

query: Any idea what IC50 came out for "CCS(=O)(=O)c1ccc(Sc2nc(Nc3cc(C)[nH]n3)c(OC)c(N3CCN(CCN(C)C)CC3)n2)cc1" on human Plk4 kinase domain (aa 2-275) (Homo sapiens)?
result: < 1000 nM

query: Any idea what IC50 came out for "CCC(=O)N1CCN(c2nc(Sc3ccc(NC(C)=O)cc3)nc(Nc3cc(C)[nH]n3)c2OC)CC1" on human Plk4 kinase domain (aa 2-275) (Homo sapiens)?
result: < 1000 nM

query: Any idea what IC50 came out for "CCOc1c(Nc2cc(C)[nH]n2)nc(Sc2ccc(S(=O)(=O)Cc3cc(F)ccc3F)cc2)nc1N1CCN(CCN(C)C)CC1" on human Plk4 kinase domain (aa 2-275) (Homo sapiens)?
result: < 1000 nM

----------
This section presents compounds with their documented pIC50 values.
# tgt: human Plk4 kinase domain (aa 2-275) (Homo sapiens)
# Sequence (O00444 2-275): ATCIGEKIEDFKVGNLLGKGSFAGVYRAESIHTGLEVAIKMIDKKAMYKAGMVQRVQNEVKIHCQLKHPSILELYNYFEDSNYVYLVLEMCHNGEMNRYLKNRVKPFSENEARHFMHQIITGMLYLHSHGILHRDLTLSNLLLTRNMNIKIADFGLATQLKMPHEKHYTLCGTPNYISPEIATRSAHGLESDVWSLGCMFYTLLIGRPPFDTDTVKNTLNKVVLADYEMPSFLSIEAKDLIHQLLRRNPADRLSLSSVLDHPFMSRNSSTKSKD
pIC50: −log10 of the molar value.

>>> observed_value("COc1c(Nc2cc(C)[nH]n2)nc(Sc2ccc(C(C)=O)cc2)nc1N1CCN(CCN(C)C)CC1")
"> 6.00"
>>> observed_value("CCOc1c(Nc2cc(C)[nH]n2)nc(Sc2ccc(NC(C)=O)cc2)nc1N1CCCCC1")
"6.00 to 7.00"
>>> observed_value("Cc1cc(Nc2nc(Sc3ccc(NC(=O)C4CCCC4)cc3)nc(N(C)C(C)C)c2C)n[nH]1")
"> 6.00"
>>> observed_value("COc1c(Nc2cc(C)[nH]n2)nc(Sc2ccc(NC(C)=O)cc2)nc1N1CCC(O)CC1")
"> 6.00"
>>> observed_value("Cc1cc(Nc2nc(Sc3ccc(NC(=O)C4CCCC4)cc3)nc3c2C(C)CC3)n[nH]1 (stereo not drawn)")
"> 6.00"
>>> observed_value("CCOc1c(Nc2cc(C)[nH]n2)nc(Sc2ccc(NC(=O)C3CCCC3)cc2)nc1N(CC)CC")
"< 6.00"

query: # pIC50 lookup, item "CCS(=O)(=O)c1ccc(Sc2nc(Nc3cc(C)[nH]n3)c(OC)c(N3CCN(C)CC3)n2)c(Cl)c1"
result: > 6.00

query: # pIC50 lookup, item "CCOc1c(Nc2cc(C)[nH]n2)nc(Sc2ccc(NC(=O)C3CC3)cc2)nc1N1CCN(C(=O)CCN(C)C)CC1"
result: 6.00 to 7.00

query: # pIC50 lookup, item "Cc1ccc(Sc2nc(Nc3cc(C)[nH]n3)c(C)c(N3CCC(O)CC3)n2)cc1"
result: > 6.00
